Each item that follows carries a reported pIC50.
- tgt: human FASN (Homo sapiens, UniProt P49327)
- Construct: was purified from SKBR3 cells using procedures modified from those in Jayakumar et al; endogenous in cells; host or cells: SKBR3 human breast cancer cells (ATCC); Endogenous enzyme purified by ammonium sulfate precipitation and a mono Q column
- Sequence (P49327 whole entry): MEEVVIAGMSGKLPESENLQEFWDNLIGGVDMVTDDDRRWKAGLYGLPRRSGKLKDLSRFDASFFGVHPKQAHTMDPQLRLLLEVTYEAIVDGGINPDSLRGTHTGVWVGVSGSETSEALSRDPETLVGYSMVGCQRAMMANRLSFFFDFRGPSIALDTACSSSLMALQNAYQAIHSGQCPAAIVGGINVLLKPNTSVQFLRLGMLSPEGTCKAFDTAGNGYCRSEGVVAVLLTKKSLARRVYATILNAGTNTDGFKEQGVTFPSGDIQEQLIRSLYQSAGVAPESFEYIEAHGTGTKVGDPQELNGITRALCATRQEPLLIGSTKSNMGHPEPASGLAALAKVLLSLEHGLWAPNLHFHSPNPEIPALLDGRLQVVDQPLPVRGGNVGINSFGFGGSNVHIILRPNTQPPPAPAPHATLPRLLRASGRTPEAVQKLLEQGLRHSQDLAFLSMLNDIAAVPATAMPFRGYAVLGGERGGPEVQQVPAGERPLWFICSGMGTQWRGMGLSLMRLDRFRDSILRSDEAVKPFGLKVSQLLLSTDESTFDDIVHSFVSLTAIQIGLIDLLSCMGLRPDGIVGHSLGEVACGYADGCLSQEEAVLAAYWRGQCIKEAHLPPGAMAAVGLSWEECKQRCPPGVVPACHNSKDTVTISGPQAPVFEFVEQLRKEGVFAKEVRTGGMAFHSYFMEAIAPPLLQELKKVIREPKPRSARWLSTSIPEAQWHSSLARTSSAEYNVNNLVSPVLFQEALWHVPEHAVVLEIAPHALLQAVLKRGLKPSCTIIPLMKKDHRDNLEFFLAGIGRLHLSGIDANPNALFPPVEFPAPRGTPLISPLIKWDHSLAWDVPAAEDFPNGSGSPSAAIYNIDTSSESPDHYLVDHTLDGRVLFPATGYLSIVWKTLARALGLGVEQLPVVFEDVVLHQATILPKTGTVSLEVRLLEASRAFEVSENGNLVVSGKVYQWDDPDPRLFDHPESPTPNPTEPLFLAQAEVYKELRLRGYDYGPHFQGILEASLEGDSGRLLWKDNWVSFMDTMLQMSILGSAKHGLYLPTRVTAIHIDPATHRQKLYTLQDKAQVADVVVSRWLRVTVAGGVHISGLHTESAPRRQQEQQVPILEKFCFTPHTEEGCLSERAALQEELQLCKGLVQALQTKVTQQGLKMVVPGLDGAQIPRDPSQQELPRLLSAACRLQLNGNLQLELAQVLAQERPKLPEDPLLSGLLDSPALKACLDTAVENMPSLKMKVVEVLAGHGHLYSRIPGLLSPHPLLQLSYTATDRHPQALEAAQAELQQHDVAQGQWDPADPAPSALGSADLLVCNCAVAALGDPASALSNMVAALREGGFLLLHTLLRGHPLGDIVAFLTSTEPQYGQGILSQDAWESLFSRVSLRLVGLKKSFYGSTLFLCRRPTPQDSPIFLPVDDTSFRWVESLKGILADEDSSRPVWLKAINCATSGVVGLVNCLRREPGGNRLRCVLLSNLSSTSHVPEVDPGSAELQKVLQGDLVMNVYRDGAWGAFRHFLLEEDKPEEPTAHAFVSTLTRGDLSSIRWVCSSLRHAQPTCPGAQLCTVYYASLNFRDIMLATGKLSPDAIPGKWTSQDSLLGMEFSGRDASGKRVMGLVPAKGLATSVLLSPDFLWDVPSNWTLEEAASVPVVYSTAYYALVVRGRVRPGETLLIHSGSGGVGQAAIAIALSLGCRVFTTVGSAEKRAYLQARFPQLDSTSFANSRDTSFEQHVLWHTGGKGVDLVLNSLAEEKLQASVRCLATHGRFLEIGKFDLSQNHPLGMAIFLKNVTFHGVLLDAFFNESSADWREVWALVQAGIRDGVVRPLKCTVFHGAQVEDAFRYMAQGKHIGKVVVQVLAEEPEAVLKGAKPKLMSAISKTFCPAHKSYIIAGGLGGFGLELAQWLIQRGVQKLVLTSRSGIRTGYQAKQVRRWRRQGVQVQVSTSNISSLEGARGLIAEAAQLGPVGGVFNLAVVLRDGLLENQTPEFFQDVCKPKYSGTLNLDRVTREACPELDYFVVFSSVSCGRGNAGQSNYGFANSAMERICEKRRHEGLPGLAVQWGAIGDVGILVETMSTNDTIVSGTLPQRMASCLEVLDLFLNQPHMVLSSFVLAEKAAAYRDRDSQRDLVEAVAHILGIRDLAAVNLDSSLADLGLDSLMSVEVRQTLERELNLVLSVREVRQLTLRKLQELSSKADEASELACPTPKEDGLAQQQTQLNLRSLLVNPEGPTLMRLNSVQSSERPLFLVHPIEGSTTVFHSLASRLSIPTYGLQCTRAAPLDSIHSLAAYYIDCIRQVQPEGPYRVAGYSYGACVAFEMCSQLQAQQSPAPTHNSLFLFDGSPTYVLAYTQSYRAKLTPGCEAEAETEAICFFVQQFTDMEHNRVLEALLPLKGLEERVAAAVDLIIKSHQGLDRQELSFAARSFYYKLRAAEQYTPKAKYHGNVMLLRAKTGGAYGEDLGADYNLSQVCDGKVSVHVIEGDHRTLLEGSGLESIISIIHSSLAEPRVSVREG
- procedure_text: FASN NADPH Consumption Assay
- Type: biochemical
- condition_label: human FASN purified from SKBR3 cells; starred symbols
pIC50: −log10 of the molar value.

INSERT INTO measurements (compound, tgt, readout_label, reported_result) VALUES
  ('CCN(C(=O)n1nnn(-c2c(C)cccc2C)c1=O)C1CCCCC1', 'human FASN (Homo sapiens, UniProt P49327)', 'pIC50', '< 5.00');

Data request: Give pIC50 for CC(C)(C)OC(=O)NC1CCCN(C(=O)n2nnn(-c3c(Cl)cccc3Cl)c2=O)C1 (stereo not shown)
Data returned: 5.00 to 6.00

Data request: Give pIC50 for CCN(C(=O)n1nnn(-c2c(Cl)cccc2Cl)c1=O)c1ccc(C(=O)OCc2ccc(OC)cc2)c(Cl)c1
Data returned: 6.60 to 7.22

Data request: Give pIC50 for CCN(C(=O)n1nnn(-c2ccsc2)c1=O)C1CCCCC1
Data returned: < 5.00

Data request: Give pIC50 for CC(=O)NCCN(C(=O)n1nnn(-c2c(Cl)cccc2Cl)c1=O)C1CCCCC1
Data returned: < 5.00

Data request: Give pIC50 for O=C(NC1CCCCC1)n1nnn(-c2ccccc2)c1=O
Data returned: < 5.00

Data request: Give pIC50 for CCN(C(=O)n1nnn(-c2c(F)cccc2F)c1=O)c1ccccc1
Data returned: > 7.22

Data request: Give pIC50 for CCCCCCN(C(=O)n1nnn(-c2ccccc2OC)c1=O)c1cc(C(=O)OCc2ccccc2)ccc1OC
Data returned: 5.00 to 6.00

Data request: Give pIC50 for CCN(C(=O)n1nnn(-c2ccccc2C(C)(C)C)c1=O)C1CCCCC1
Data returned: < 5.00

Data request: Give pIC50 for CCN(C(=O)n1nnn(-c2c(F)cccc2F)c1=O)c1ccccc1OC(F)(F)F
Data returned: 6.60 to 7.22

---

- tgt: human FASN (Homo sapiens)
- Construct: was purified from SKBR3 cells using procedures modified from those in Jayakumar et al; endogenous in cells; host or cells: SKBR3 human breast cancer cells (ATCC); Endogenous enzyme purified by ammonium sulfate precipitation and a mono Q column
- procedure_text: FASN NADPH Consumption Assay
- Assay type: biochemical
- condition_label: human FASN purified from SKBR3 cells; starred symbols
pIC50: −log10 of the molar value.
readout_label: pIC50

Worked cases, answers included:
INSERT INTO measurements (compound, tgt, reported_result) VALUES
  ('CCN(C(=O)n1nnn(-c2c(Cl)cccc2Cl)c1=O)c1ccc(Cl)c(C(=O)O)c1', 'human FASN (Homo sapiens)', '6.60 to 7.22'),
  ('COc1ccc2c(c1)CCCN2C(=O)n1nnn(-c2c(F)cccc2F)c1=O', 'human FASN (Homo sapiens)', '6.60 to 7.22'),
  ('CCN(C(=O)n1nnn(-c2c(Cl)cccc2Cl)c1=O)C1CCCC(C(=O)O)C1 (stereo not shown)', 'human FASN (Homo sapiens)', '5.00 to 6.00'),
  ('CCN(C(=O)n1nnn(-c2ccccc2I)c1=O)C1CCCCC1', 'human FASN (Homo sapiens)', '5.00 to 6.00'),
  ('O=C(N1CCCCc2ccccc21)n1nnn(-c2c(F)cccc2F)c1=O', 'human FASN (Homo sapiens)', '6.60 to 7.22');

Data request: Give pIC50 for CCCCCCN(C)C(=O)n1nnn(-c2ccccc2Cl)c1=O
Data returned: 5.00 to 6.00

Data request: Give pIC50 for CCCOc1ccc(C(=O)O)cc1N(CC)C(=O)n1nnn(-c2ccccc2OC)c1=O
Data returned: 6.00 to 6.60
